Listed molecules paired with reported BUN
- Species on record: Rattus norvegicus
- ASSAY: Open TG-GATES - Regimen: Single
- Format: toxicity, organism-based, Sprague-Dawley
- Set-up: regimen Single, gender Male, age 6 weeks
- SETUP CONDITIONS: in vivo, po, 0 mg/kg, 6 h, tissue Plasma, route gavage, dose level Control

{"MOLECULE": "CC(C)C(=O)Nc1ccc([N+](=O)[O-])c(C(F)(F)F)c1 [FLUTAMIDE]", "BUN, mg/dL": 8.4}
{"MOLECULE": "C[C@]12CCC(=O)C=C1CC[C@@H]1[C@@H]2CC[C@@]2(C)[C@H]1CC[C@]2(C)O", "BUN, mg/dL": 9}
{"MOLECULE": "CN1C(=O)OC(C)(C)C1=O", "BUN, mg/dL": 9}
{"MOLECULE": "CC(C)(S)[C@@H](N)C(=O)O", "BUN, mg/dL": 9.6}
{"MOLECULE": "CC(=N)S [THIOACETAMIDE]", "BUN, mg/dL": 10.8}
{"MOLECULE": "CCN1CCCC1CNC(=O)c1cc(S(N)(=O)=O)ccc1OC (stereo not given) [SULPIRIDE]", "BUN, mg/dL": 9}
{"MOLECULE": "C#C[C@]1(O)CC[C@H]2[C@@H]3CCc4cc(O)ccc4[C@H]3CC[C@@]21C", "BUN, mg/dL": 7.6}
{"MOLECULE": "Oc1ncnc2[nH]ncc12", "BUN, mg/dL": 11.2}
{"MOLECULE": "O=C(N[C@H](CO)[C@H](O)c1ccc([N+](=O)[O-])cc1)C(Cl)Cl", "BUN, mg/dL": 8.8}
{"MOLECULE": "Nc1nc(N)c2nc(-c3ccccc3)c(N)nc2n1", "BUN, mg/dL": 9.6}
{"MOLECULE": "O=C(O)c1cccnc1", "BUN, mg/dL": 12.6}
{"MOLECULE": "C[C@](N)(Cc1ccc(O)c(O)c1)C(=O)O", "BUN, mg/dL": 8.4}
{"MOLECULE": "CC(=O)Oc1cc(C(C)C)c(OCCN(C)C)cc1C", "BUN, mg/dL": 10.8}
{"MOLECULE": "CCc1oc2ccccc2c1C(=O)c1cc(I)c(O)c(I)c1", "BUN, mg/dL": 9.8}
{"MOLECULE": "CCSCC[C@H](N)C(=O)O", "BUN, mg/dL": 10.6}

====

Listed molecules paired with reported PL
- Organism: Rattus norvegicus
- ASSAY: Open TG-GATES - Regimen: Daily Repeat
- Type: toxicity, organism-based, Sprague-Dawley
- Parameters: regimen Daily Repeat, gender Male, age 6 weeks
- SETUP CONDITIONS: in vivo, po, 0 mg/kg, […], tissue Plasma, route gavage, dose level Control, time 14 day

{"MOLECULE": "CC(=N)S [THIOACETAMIDE]", "PL (mg/dL)": 169}
{"MOLECULE": "CCN1CCCC1CNC(=O)c1cc(S(N)(=O)=O)ccc1OC (stereo unspecified) [SULPIRIDE]", "PL (mg/dL)": 146.2}
{"MOLECULE": "Nc1nc(N)c2nc(-c3ccccc3)c(N)nc2n1", "PL (mg/dL)": 154.4}
{"MOLECULE": "CC(=O)Oc1cc(C(C)C)c(OCCN(C)C)cc1C", "PL (mg/dL)": 148.4}
{"MOLECULE": "O=C(O)c1cccnc1", "PL (mg/dL)": 156}
{"MOLECULE": "CN1C(=O)OC(C)(C)C1=O", "PL (mg/dL)": 164.6}
